Entries and their Kd values follow.
- System: T1, human FcRH5 protein fragment (soluble) (human, UniProt Q96RD9 16-851)
- T1 construct: whole entry named; also called soluble human FcRH5; Human FcRH5 (BIACORE analyte)
- T1 sequence: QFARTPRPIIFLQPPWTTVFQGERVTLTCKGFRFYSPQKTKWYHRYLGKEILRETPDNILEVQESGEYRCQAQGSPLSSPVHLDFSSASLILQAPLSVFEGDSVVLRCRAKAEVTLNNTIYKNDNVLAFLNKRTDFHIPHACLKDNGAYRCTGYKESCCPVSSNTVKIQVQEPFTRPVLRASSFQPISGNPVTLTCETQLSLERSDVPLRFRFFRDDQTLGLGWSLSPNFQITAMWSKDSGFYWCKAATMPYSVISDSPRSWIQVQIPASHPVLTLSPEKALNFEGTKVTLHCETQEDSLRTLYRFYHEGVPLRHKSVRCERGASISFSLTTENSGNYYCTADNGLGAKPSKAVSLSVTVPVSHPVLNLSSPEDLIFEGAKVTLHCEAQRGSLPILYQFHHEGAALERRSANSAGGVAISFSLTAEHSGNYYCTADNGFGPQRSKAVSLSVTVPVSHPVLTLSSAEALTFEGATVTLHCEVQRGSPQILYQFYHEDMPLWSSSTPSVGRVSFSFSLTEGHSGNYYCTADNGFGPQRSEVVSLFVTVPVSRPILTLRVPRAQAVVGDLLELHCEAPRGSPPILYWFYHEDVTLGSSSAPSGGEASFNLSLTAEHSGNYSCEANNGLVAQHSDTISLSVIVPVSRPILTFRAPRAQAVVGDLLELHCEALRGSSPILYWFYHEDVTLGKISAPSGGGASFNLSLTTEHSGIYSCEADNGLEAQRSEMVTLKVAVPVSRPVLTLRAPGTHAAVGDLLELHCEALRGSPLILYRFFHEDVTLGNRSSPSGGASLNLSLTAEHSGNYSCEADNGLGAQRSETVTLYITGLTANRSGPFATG
- Assay overview: SPR (BIACORE), IgG captured via anti-human IgG, FcRH5 protein fragment as analyte (100 and 500 nM)
- Procedure: Briefly, a human IgG capture surface was generated on a Series S CM5 chip using amine coupling and the human IgG capture kit (GE Life Sciences, Piscataway, NJ). Test antibodies were then captured on flow cells 2, 3, or 4, with flow cell 1 used as a reference. […] Interactions were assessed at 25° C. in 10 mM HEPES pH7.4, 150 mM NaCl, and 0.05% Tween 20 (HBSP). […] Kinetic information was calculated by fitting data to a 1:1 binding model. […]
The answer is to be given in nM; state only the numeric part.

Fill blank: measured Kd of the binder hu1G7.v1 heavy chain M64F with light chain of hu1G7.v1.7 (antibody, V domains shown, human IgG) VH: EVQLVESGPGLVKPSETLSLTCTVSGFSLTRFGVHWVRQPPGKGLEWLGVIWRGGSTDYNAAFFSRLTISKDNSKNQVSLKLSSVTAADTAVYYCSNHYYGSSDYALDNWGQGTLVTVSS VL: DIQMTQSPSSLSASVGDRVTITCKASQDVRNLVVWFQQKPGKAPKLLIYSGYYRYTGVPSRFSGSGSGTDFTLTISSLQPEDFATYYCQQHYQPPYTFGQGTKVEIK is ____. 2.4

Fill blank: measured Kd of the binder hu1G7.v1 heavy chain W52L with light chain of hu1G7.v1.3 (antibody, V domains shown, human IgG) VH: EVQLVESGPGLVKPSETLSLTCTVSGFSLTRFGVHWVRQPPGKGLEWLGVILRGGSTDYNAAFMSRLTISKDNSKNQVSLKLSSVTAADTAVYYCSNHYYGSSDYALDNWGQGTLVTVSS VL: DIQMTQSPSSLSASVGDRVTITCKASQDVRNIVVWFQQKPGKAPKLLIYSGSYRYSGVPSRFSGSGSGTDFTLTISSLQPEDFATYYCQQQYSPPYTFGQGTKVEIK is ____. 239

***
Fill blank: measured Kd of the binder hu1G7.v1 heavy chain W52Y with light chain of hu1G7.v1.4 (antibody, V domains shown, human IgG) VH: EVQLVESGPGLVKPSETLSLTCTVSGFSLTRFGVHWVRQPPGKGLEWLGVIYRGGSTDYNAAFMSRLTISKDNSKNQVSLKLSSVTAADTAVYYCSNHYYGSSDYALDNWGQGTLVTVSS VL: DIQMTQSPSSLSASVGDRVTITCKASQDVRNLVVWFQQKPGKAPKLLIYSGSYRYSGVPSRFSGSGSGTDFTLTISSLQPEDFATYYCQQHYSPPYTFGQGTKVEIK is ____. 131
